# measured.on: T1, human MSLN protein endogenously expressed on OVCAR3 tumor cells (human, UniProt Q13421 296-598)
# T1 construct: whole, on cells; Endogenous target on OVCAR3 cells; kept apart from the recombinant full-length construct; also called mesothelin
# experiment.description: FACS on OVCAR3 cells
reported.property: Maximum mean fluorescence intensity
I'd appreciate a reply containing only the number, no unit.

S009-F1.59.1 (antibody, human IgG1, kappa, V domains shown, human-murine chimeric antibody, human IgG1/kappa constant regions) VH: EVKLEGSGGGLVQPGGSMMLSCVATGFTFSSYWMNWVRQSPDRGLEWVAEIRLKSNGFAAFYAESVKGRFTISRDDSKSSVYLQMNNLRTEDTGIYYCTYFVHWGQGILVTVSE VL: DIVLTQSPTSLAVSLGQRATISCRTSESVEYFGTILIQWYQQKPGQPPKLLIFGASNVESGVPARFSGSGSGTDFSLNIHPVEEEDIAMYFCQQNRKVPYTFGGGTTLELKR : 445

As a next step, examine the binder that follows.
What value of Maximum mean fluorescence intensity has been recorded for this entry: S009-F1.25.10 (antibody, human IgG1, kappa, V domains shown, human-murine chimeric antibody, human IgG1/kappa constant regions) VH: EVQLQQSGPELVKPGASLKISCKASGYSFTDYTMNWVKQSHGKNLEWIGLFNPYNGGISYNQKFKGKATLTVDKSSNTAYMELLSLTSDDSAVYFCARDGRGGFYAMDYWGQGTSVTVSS VL: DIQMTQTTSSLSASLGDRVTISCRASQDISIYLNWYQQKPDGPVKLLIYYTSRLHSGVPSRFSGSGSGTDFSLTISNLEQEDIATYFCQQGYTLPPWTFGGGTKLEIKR 429
